// note: IC50 values for UniProt:P21397 were reported in different studies
Sequence (P21397 whole entry): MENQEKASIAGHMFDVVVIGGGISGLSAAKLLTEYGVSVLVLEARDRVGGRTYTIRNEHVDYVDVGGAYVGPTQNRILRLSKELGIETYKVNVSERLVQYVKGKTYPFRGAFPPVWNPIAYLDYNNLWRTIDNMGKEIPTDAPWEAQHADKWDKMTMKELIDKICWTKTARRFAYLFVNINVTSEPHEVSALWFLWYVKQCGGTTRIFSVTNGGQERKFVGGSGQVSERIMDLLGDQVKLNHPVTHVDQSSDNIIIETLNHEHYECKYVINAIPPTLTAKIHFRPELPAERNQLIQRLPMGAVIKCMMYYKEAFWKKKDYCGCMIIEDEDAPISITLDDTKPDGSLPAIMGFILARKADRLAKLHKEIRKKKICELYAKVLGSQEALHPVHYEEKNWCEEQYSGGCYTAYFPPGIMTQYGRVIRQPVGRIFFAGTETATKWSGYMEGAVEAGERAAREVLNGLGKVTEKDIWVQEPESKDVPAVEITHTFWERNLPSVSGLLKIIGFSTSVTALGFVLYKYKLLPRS
measuredEndpoint: IC50 (µM)

querySmiles: O=C(/C=C/c1ccc2c(c1)OCO2)NC1CCCCC1
targetOrTestSystem: UniProt:P21397
modifierSign: >
numericValue: 100
--
querySmiles: Cn1c(N/N=C(\C=C\c2cccc(Cl)c2)c2ccccc2)nc2ccccc2c1=O
targetOrTestSystem: UniProt:P21397
modifierSign: =
numericValue: 468
--
querySmiles: CCc1ccc(NC(=S)N/N=C/c2ccc(-n3nc4c(c3-c3ccccc3)N(C)S(=O)(=O)c3ccccc3-4)cc2)cc1
targetOrTestSystem: UniProt:P21397
modifierSign: =
numericValue: 8.18
--
querySmiles: CN(C)S(=O)(=O)Oc1cncc(-c2c(C#N)c3ccccc3n2C)c1
targetOrTestSystem: UniProt:P21397
modifierSign: >
numericValue: 10
--
querySmiles: Nc1n[nH]c(NCc2c(Cl)cccc2Oc2ccc3ccccc3c2)n1
targetOrTestSystem: UniProt:P21397
modifierSign: >
numericValue: 200
--
querySmiles: Cc1cc(C)cc(Oc2ccccc2CNc2nc(N)n[nH]2)c1
targetOrTestSystem: UniProt:P21397
modifierSign: =
numericValue: 91.4
--
querySmiles: Cn1c(=O)c2c(nc3n2CCCN3c2ccc(Cl)cc2)n(C)c1=O
targetOrTestSystem: UniProt:P21397
modifierSign: >
numericValue: 10
--
querySmiles: O=C(/C=C/c1ccc(C(F)(F)F)cc1)Nc1cccc(F)c1
targetOrTestSystem: UniProt:P21397
modifierSign: >
numericValue: 100
--
querySmiles: Cc1ccc(C(=O)/C=C/c2ccc(F)c(Br)c2)s1
targetOrTestSystem: UniProt:P21397
modifierSign: =
numericValue: 16.1
--
querySmiles: N#Cc1ccc(-c2csc(N/N=C/c3ccc(N4CCOCC4)cc3)n2)cc1
targetOrTestSystem: UniProt:P21397
modifierSign: =
numericValue: 54
--
querySmiles: O=C(/C=C/c1ccccc1C(F)(F)F)Nc1ccccc1
targetOrTestSystem: UniProt:P21397
modifierSign: >
numericValue: 100
